Numbers sourced from paper PMC10397247.

Molecular target: T1, APC6088-AA
T1 chain: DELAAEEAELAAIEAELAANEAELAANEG
Assay: two-hybrid library CCmax;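 also: natural log of median RNA to DNA barcode read ratio; higher means stronger binding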
Details: mean of both orientations
reportedMetric: interaction score

# count of solved cases: 5
{"binder": "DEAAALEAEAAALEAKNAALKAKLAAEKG [APC2257-AA]", "interaction score": -1.24}
{"binder": "DEAAALEAELAANEAKLAAIKAKLAAIKG [APC2811-AA]", "interaction score": -1.51}
{"binder": "DEAAALEAKNAALKAENAALEAKAAALKG [APC2543-AA]", "interaction score": -1.87}
{"binder": "DKAAALKAKAAALKAEAAALEAKAAALKG [APC3323-AA]", "interaction score": -1.65}
{"binder": "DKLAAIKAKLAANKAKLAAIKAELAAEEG [APC1916-AA]", "interaction score": -1.82}

A = DKAAALKAELAANEAELAANEAKLAAIKG [APC3881-AA]
B = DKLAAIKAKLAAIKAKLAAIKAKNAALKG [APC1115-AA]
For the pair A and B , which member has the lower interaction score number? // return label of chosen record
A

1 = DENAALEAKAAALKAKAAALKAELAAEEG [APC4336-AA]
2 = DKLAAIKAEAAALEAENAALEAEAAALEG [APC1242-AA]
Parameter metric = interaction score. Return the lower-valued option from 1 and 2 . Write the label of whichever entry you select.
1
